Reported values of AC50 for individual entries
target: UniProt:P08908; assay type: functional, cell-based
Sequence (P08908 whole entry): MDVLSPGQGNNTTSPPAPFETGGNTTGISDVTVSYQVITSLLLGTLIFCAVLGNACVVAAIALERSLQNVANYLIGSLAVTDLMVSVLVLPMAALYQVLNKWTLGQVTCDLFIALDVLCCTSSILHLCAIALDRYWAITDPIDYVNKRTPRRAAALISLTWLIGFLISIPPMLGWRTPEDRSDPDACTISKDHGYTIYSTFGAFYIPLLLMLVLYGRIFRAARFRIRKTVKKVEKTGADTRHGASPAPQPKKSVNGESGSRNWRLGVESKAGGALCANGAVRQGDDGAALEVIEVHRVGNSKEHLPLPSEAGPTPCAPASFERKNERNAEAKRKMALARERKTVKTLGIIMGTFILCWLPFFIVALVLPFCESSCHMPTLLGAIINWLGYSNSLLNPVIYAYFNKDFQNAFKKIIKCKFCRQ

{"columns": ["compound", "AC50"],
 "data": [
  ["CCCc1nc2c(C)cc(-c3nc4ccccc4n3C)cc2n1Cc1ccc(-c2ccccc2C(=O)O)cc1", "> 30 µM"]
]}

AC50 in this record for COc1cc(C(C)=O)ccc1OCCCN1CCC(c2noc3cc(F)ccc23)CC1 : > 30 µM

AC50 in this record for Cc1ccnc2c1NC(=O)c1cccnc1N2C1CC1 : > 10 µM

AC50 in this record for COc1cc2[nH]c(C)c(CCN3CCN(c4ccccc4)CC3)c2cc1OC : > 30 µM

AC50 in this record for CCCN(CCC)S(=O)(=O)c1ccc(C(=O)O)cc1 : > 10 µM
